- system.name: Chromo domain-containing protein 1 (Saccharomyces cerevisiae (strain ATCC 204508 / S288c) (Baker's yeast)) (UniProt P32657)
- Sequence (P32657 whole entry, the tested form may be a part): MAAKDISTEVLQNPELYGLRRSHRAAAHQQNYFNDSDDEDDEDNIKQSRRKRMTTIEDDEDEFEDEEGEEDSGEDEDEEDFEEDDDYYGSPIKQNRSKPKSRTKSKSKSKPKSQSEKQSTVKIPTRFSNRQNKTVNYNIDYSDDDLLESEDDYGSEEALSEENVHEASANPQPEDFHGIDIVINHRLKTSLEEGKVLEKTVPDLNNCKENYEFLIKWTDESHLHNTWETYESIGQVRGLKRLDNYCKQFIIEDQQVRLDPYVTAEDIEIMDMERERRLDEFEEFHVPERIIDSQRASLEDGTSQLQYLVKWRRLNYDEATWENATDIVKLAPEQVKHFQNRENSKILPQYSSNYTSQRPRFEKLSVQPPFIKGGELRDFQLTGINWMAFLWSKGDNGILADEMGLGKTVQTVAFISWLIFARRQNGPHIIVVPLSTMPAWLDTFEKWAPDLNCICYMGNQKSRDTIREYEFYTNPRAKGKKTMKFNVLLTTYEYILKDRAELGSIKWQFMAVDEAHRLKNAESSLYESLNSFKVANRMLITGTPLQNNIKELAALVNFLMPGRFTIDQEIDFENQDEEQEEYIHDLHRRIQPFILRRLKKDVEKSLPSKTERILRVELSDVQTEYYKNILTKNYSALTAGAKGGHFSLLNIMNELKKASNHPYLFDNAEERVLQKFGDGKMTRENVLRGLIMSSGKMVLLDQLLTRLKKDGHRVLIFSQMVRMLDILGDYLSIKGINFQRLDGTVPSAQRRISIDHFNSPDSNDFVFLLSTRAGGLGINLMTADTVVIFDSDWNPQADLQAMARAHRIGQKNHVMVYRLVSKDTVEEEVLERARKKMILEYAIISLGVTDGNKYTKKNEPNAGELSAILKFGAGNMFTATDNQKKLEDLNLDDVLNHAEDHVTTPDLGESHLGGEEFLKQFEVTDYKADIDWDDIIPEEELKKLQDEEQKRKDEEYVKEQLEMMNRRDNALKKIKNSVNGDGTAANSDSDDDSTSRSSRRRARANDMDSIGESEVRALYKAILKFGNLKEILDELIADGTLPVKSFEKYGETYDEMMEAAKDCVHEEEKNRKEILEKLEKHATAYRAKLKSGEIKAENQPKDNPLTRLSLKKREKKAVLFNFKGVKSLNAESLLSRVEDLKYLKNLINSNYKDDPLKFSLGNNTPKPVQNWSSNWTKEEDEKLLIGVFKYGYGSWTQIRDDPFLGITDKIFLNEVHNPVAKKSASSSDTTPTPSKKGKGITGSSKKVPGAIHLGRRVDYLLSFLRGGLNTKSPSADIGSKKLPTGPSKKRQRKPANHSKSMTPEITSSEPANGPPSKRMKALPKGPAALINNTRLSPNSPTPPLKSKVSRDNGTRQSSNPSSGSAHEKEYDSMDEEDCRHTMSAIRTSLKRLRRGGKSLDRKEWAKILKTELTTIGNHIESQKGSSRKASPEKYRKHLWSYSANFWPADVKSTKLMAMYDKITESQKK
- protocol.notes: ScCHD-1 Enzyme Inhibition Assay; note: in the data most compounds retested in dose-response had high values
- Type: functional
- Design: scale not given: direction of the effect not stated beside the values
- conditions: 30 µM
reported.endpoint: Percent Effect (%)
Report the figure in % without appending any unit label.

Solved cases (2 shown):
[
  {
    "compound": "Cc1nnc2n1CCN(C(=O)COCCOc1ccccc1)C2",
    "endpoint.unit": "%",
    "Percent Effect": -1.76
  },
  {
    "compound": "O=C(NCCNc1cnccn1)C1CCN(C(=O)N2CCCC2)CC1",
    "endpoint.unit": "%",
    "Percent Effect": -23.5
  }
]

Prompt: Find the recorded Percent Effect belonging to Cn1ccnc1CN1CCN(CC(=O)NCC(F)(F)F)CC1 and report it.
Response: -3

Prompt: Item: CN(Cc1ccccc1O)C(=O)NC1CCCN(c2ncccn2)C1 (stereo unspecified)
Response: -8.65

Prompt: // repeat for COc1ccc(C(=O)N(C)Cc2nnc3ccccn23)c(OC)c1 and report
Response: -15.8

Prompt: Try CCn1c(=O)nc2n1C(=O)N(c1cccc(Cl)c1)C2 next.
Response: -7.77

* * *

- system.name: Ubiquitin-activating enzyme e1, putative (Leishmania donovani (strain BPK282A1))
- Sequence (whole entry): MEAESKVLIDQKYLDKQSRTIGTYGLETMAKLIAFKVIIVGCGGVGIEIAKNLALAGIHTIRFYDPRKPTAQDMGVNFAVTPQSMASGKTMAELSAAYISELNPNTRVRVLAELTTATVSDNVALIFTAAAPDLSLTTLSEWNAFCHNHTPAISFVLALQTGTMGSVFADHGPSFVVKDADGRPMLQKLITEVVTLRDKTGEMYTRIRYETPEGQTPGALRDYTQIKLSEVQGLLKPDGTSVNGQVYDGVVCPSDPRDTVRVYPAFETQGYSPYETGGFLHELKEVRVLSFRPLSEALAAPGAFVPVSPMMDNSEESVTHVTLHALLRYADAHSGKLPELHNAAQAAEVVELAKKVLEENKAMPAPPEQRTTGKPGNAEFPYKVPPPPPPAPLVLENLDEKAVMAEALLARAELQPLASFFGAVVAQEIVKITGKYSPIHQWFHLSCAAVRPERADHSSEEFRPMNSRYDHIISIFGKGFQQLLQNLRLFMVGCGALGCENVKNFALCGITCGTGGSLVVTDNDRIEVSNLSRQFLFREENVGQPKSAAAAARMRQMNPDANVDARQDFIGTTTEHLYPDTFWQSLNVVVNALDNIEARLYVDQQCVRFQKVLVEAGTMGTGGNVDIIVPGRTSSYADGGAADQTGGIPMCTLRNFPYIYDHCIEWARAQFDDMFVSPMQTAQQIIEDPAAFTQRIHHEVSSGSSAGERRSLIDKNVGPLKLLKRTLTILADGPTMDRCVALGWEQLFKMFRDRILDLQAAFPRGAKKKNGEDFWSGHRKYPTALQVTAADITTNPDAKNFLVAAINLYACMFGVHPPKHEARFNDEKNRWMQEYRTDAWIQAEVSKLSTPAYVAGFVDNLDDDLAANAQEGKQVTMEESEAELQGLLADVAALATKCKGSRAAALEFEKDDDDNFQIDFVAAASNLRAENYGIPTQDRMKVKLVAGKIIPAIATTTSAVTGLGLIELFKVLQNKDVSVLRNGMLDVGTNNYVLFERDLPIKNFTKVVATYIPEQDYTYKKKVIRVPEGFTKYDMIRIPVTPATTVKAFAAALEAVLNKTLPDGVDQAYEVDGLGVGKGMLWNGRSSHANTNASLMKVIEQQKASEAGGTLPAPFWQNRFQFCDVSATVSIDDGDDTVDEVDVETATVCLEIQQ
- protocol.notes: Leishmania donovani Ubiquitin Activating Enzyme (LdE1)
- Type: functional
- Parameters: scale not given: direction of the effect not stated beside the values
- conditions: 30 µM
Potency and affinity values are given separately.
Percent Effect vs 10%: at or above is rule met, below is rule not met.

Look over these answered cases.
[
  {
    "compound": "Fc1cnc(N2C[C@H]3CCC[C@@]3(COc3ccccn3)C2)nc1",
    "group.label": "rule not met"
  },
  {
    "compound": "O=C(CCc1nc2cccnc2[nH]1)NCc1ccc2c(c1)OCO2",
    "group.label": "rule met"
  },
  {
    "compound": "Cn1cc(CN2CCn3c(CNC(=O)c4cccn4C)cnc3C2)cn1",
    "group.label": "rule met"
  }
]

Prompt: Hi, just wondering whether CCc1nnc2n1CCN(C(=O)Cc1csc(-c3ccco3)n1)C2 shows Percent Effect of 10% or higher.
Response: rule met

Prompt: Would you kindly repeat that for COCC(O)CN(C)C(=O)NC1CCN(Cc2ccccn2)CC1 (centres undefined) ?
Response: rule met

Prompt: Consider next the compound O=C(NCCC1=CCCCC1)NCc1nnc2n1CCC2 in the same way.
Response: rule met

Prompt: Repeat with O=C(NCCCOCC1CCCO1)c1cccnc1N1CCCC1 (centres undefined)
Response: rule not met

Prompt: And for O=C(NCC1CCOC1)c1cc(-c2cccc(Cl)c2)on1 (centres undefined) ?
Response: rule met

Prompt: Next: O=C(Cc1c[nH]c2ccccc12)N1CCN(C(=O)c2ccoc2)CC1
Response: rule met

Prompt: Now this one: CC1CN(C(=O)CN(Cc2ccco2)C2CC2)CCO1 (centres undefined)
Response: rule not met

Prompt: Another: Cc1nn(C)c(Cl)c1C1CCCN1C(=O)c1ccc2nncn2c1 (centres undefined)
Response: rule not met

Prompt: Repeat for the following compound: CCc1nc(CN2CCCN(C(=O)c3cnc[nH]3)CC2)cs1
Response: rule not met

Prompt: Same again, this time with Fc1cnc(N2CCCC3(CN(Cc4ccncc4)CCO3)C2)nc1 (centres undefined)
Response: rule met

Prompt: Also check O=C(NCCOc1ccc2c(c1)OCO2)C1CC(=O)N(CC2CC2)C1 (centres undefined)
Response: rule met

Prompt: Further, for Cc1nn(C)c(C)c1C1CCCN1CC(=O)NC(C1CC1)C1CC1 (centres undefined) ?
Response: rule met

Prompt: Same read-out for Cc1nc(NCCc2ccc(Cl)cc2)cc(C(=O)N2CCOCC2)n1 ?
Response: rule not met

Prompt: What do you get for COc1ccc2cc(C(=O)N3CCCCC3Cn3cccn3)[nH]c2c1 (centres undefined) ?
Response: rule not met

Prompt: Same read-out for CCn1cc(NC(=O)NC2CCCc3c2cnn3CCO)cn1 (centres undefined) ?
Response: rule not met

Prompt: Next: Cc1nc2ccccc2c(=O)n1CCC(=O)N1CCSCC1
Response: rule met

Prompt: Another compound to check: Cc1cccc(CN2CCC3(CCCN(C(=O)c4ccsc4)C3)C2=O)n1 (centres undefined)
Response: rule not met

Prompt: Then CCN1CCN(S(=O)(=O)c2cc(Cl)c(Cl)cc2C)CC1 ?
Response: rule not met

Prompt: Try this compound next: Cc1ccc(N2CCCC(NCc3ccncc3)C2)nn1 (centres undefined)
Response: rule met

Prompt: For Cc1nn(C)c(N2CCOCC2)c1CNC(C)c1ccco1 (centres undefined) then?
Response: rule met

Prompt: Queued: CC1=Nc2c(c(=O)[nH]n2C(C)C)C(c2ccc(F)c(F)c2)S1 (centres undefined)
Response: rule not met

* * *

- system.name: Chromo domain-containing protein 1 (Saccharomyces cerevisiae (strain ATCC 204508 / S288c) (Baker's yeast))
- protocol.notes: ScCHD-1 Enzyme Inhibition Assay; note: in the data most compounds retested in dose-response had high values
- Assay type: functional
- Set-up: scale not given: direction of the effect not stated beside the values
- conditions: 30 µM
reported.endpoint: Percent Effect (%)
Write down the numeric answer in % and omit the unit.

// solved cases for Percent Effect follow
[
  {
    "compound": "Cc1cccc(CN2CCc3ncnc(N4CCOCC4)c3CC2)n1",
    "reported.endpoint": "Percent Effect",
    "endpoint.unit": "%",
    "result.value": -0.552
  },
  {
    "compound": "CC(C)S(=O)(=O)c1nnc(CCNC(=O)OC(C)(C)C)o1",
    "reported.endpoint": "Percent Effect",
    "endpoint.unit": "%",
    "result.value": -8.11
  },
  {
    "compound": "CCCNCC1(O)CCCN(Cc2cccc(C)c2)C1=O (stereo unspecified)",
    "reported.endpoint": "Percent Effect",
    "endpoint.unit": "%",
    "result.value": -1.9
  },
  {
    "compound": "CCC(C(=O)NC)N(c1cccc(C)c1)S(C)(=O)=O (stereo unspecified)",
    "reported.endpoint": "Percent Effect",
    "endpoint.unit": "%",
    "result.value": -3.23
  },
  {
    "compound": "CC(C)(C)c1nc(CN2CCC(c3nc4cc(Cl)ccc4o3)CC2)no1",
    "reported.endpoint": "Percent Effect",
    "endpoint.unit": "%",
    "result.value": -5.62
  }
]

Continue with the compound presented below.
Prompt: Item CCCNC(=O)c1sccc1N(C)S(=O)(=O)c1ccc(Cl)cc1 has what recorded Percent Effect?
Response: -1.51

Source listed as ChEMBL document CHEMBL3988442.
